# Target system: lysosomal (acidic) α-D-mannosidase (Homo sapiens, UniProt O00754)
# Construct: Post mortem human liver, which had been stored at -20° C; from tissue; host or cells: post mortem human liver, 37,000 g supernatant; concanavalin A-Sepharose fraction
# Sequence (O00754 50-1011): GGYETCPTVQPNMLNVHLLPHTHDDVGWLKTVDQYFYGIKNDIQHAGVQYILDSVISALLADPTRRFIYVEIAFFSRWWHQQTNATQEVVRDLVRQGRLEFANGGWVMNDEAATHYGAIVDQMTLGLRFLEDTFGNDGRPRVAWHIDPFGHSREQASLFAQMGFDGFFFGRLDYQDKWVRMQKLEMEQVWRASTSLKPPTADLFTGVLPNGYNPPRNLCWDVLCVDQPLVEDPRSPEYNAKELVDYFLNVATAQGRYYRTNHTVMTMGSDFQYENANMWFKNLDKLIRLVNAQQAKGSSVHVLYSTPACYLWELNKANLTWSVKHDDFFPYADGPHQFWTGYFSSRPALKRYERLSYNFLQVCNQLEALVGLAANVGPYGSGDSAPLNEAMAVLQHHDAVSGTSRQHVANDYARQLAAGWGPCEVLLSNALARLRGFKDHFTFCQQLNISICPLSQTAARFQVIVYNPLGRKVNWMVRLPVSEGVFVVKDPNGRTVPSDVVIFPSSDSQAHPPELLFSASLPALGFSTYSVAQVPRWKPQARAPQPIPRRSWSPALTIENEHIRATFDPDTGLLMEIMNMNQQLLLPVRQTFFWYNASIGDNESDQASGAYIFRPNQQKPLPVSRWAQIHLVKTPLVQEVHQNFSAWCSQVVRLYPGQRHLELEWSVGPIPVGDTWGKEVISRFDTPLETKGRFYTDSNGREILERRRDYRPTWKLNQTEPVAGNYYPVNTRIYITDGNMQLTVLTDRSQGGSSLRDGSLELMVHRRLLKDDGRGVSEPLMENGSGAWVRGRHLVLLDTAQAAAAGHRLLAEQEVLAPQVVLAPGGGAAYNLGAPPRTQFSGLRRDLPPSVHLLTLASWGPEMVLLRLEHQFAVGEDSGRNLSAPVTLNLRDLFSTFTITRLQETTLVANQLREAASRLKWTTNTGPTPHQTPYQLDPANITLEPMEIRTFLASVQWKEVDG
# Assay explanation: Inhibition of lysosomal (acidic) α-D-mannosidase, fluorigenic 4-methylumbelliferyl glycoside substrate
# Format: biochemical
# Condition description: pH optimum of 4.0; Dixon graphical procedure
pKi: −log10 of the molar value.
Experimental endpoint: pKi

INSERT INTO assay_data (structure_as_smiles, numeric_readout) VALUES
  ('OC[C@H](O)[C@@H]1NC[C@@H](O)[C@H]1O', 3.77);

Recorded values, source patent US4894388A.
